- procedure-summary: qHTS Assay for Enhancers of SMN2 Splice Variant Expression; also: nearly all actives have a fitted effect of over 55% in size
- assay-conditions: HEK293 SMN2-luciferase splicing reporter, luminescence, 30-36 h; series mostly up to 46.1 µM
Out of some 210,000 compounds screened, about 5,900 (2.8%) were called active. Not shown: some 5% with an inconclusive outcome. Calls follow the shape of the dose curve; as a rule, active = well fitted activation curve with a large enough effect; inconclusive = small, poorly fitted or top-dose-only effect; inactive = no such curve, though single readings can be large or run the other way. The sample holds actives, similar compounds and a random draw of the others, so the mix is not that of the screen.
Response enum: active, inactive

molecule	assigned-label
O=S(=O)(c1ccc(C2CCCCC2)cc1)N1CCN(c2ccc(Cl)c(Cl)c2)CC1	inactive

In this assay, the call recorded for CCOC(=O)CSc1nnc(-c2ccncc2)o1 was what? inactive

Dear colleague, could you share the recorded outcome for CCc1nn(CC(=O)N2CCN(c3cccc(C(F)(F)F)c3)CC2)c(=O)c2cc3occc3n12 when you have a moment? inactive

Recorded test call requested for O=C(O)CCCCc1nc2ccccc2s1 inactive

In this assay, the call recorded for CCC(=O)NC(=Nc1nc2ccccc2s1)NC(=O)CC was what? active

Which outcome was assigned to CC(C)CC(=O)N/C(N)=N/c1nc2ccccc2s1 in this test? active

Call for entry Cc1cccc(C)c1OC(=O)CSc1nnc(-c2ccccc2)o1 : inactive

// return assay outcome for COC(=O)c1c(NC(=O)c2cc(=O)c3c(C)cc(C)cc3o2)sc2c1CCCC2 inactive

What call does the record list for COC(=O)c1nc2ccccc2s1 ? inactive

###

- procedure-summary: qHTS Assay for Enhancers of SMN2 Splice Variant Expression; also: nearly all actives have a fitted effect of over 55% in size
- assay-conditions: HEK293 SMN2-luciferase splicing reporter, luminescence, 30-36 h; series mostly up to 46.1 µM
- Text: NIH Chemical Genomics Center [NCGC] NIH Molecular Libraries Probe Production centers Network [MLPCN] MLPCN Grant: R03 MH084179-01 Assay Submitter (PI): Elliot Androphy NCGC Assay Overview: Spinal muscular atrophy (SMA) is caused by insufficient levels of the survival motor neuron protein SMN. The SMN locus on chromosome 5q13 contains two inverted copies of SMN called SMN1 and SMN2 which are 99% identical at the amino acid level. […]
Hit rate of the full screen: of about 210,000 compounds, about 5,900 (2.8%) were called active. About 5% were inconclusive and are not listed. Calls follow the shape of the dose curve; as a rule, active = well fitted activation curve with a large enough effect; inconclusive = small, poorly fitted or top-dose-only effect; inactive = no such curve, though single readings can be large or run the other way. This excerpt belongs to a sample that is enriched for actives.
Result category, one only: active, inactive

Example entries and their recorded answers appear below.
CC(=O)c1ccc(NC(=S)NC(=O)CC(C)C)cc1 active
CCc1nnc(NC(=O)c2c(O)c3c([nH]c2=O)CCCC3)s1 active
COc1cc(CCC(=O)OCC(=O)Nc2cccc(S(N)(=O)=O)c2)cc(OC)c1OC inactive
C=CCNc1cnn(-c2ccc(C)cc2)c(=O)c1Cl active
Cc1ccc(-c2cc(N)n(Cc3cccc(Cl)c3)n2)cc1 inactive

We now examine a further compound.
Please share the test call associated with CCCn1c(C)cc(/C=C(\C#N)C(=O)OCC(=O)Nc2cc(OC)c(OC)c(OC)c2)c1C . active

###

- procedure-summary: qHTS Assay for Enhancers of SMN2 Splice Variant Expression; also: nearly all actives have a fitted effect of over 55% in size
- assay-conditions: HEK293 SMN2-luciferase splicing reporter, luminescence, 30-36 h; series mostly up to 46.1 µM
In all, about 210,000 compounds went through this assay and about 5,900 (2.8%) were called active. Not shown: some 5% with an inconclusive outcome. Calls follow the shape of the dose curve; as a rule, active = well fitted activation curve with a large enough effect; inconclusive = small, poorly fitted or top-dose-only effect; inactive = no such curve, though single readings can be large or run the other way. This is one part of a sample in which actives are shown more often than they occur.
Hi! Could you answer with just one of these? T for active, F for inactive

Recorded results for 5 compounds are shown here.
compound	assigned-label
CC1CCC2(CC1)N=C(c1ccccc1)C(=O)N2CC(=O)Nc1ccc(F)c(Cl)c1 (stereo unspecified)	F
CCOCCCNC(=O)c1c(NC(=O)Cc2coc3c(C)c(C)ccc23)sc2c1CCC2	F
COc1ccc2c(c1)CCc1c(C(=O)N3CCCC3)noc1-2	T
Cc1cccc(NC(=O)CSc2nnc(-c3ccco3)o2)c1	F
COc1ccc(Cc2nc(-c3ccccn3)no2)cc1OC	F

# fetch the recorded call for COC(=O)c1ccc(OC)c(Cn2c(=O)n(Cc3ccccc3)c(=O)c3c2c2cc(OC)ccc2n3C)c1 here F

Tell me the recorded outcome of this test for NS(=O)(=O)c1cc(C(=O)NCCOc2ccccc2)c(Cl)cc1Cl . F

What classification did Nc1ccc(C(=O)NCc2ccccc2)cc1 end up with in this test? F

Record lookup: outcome of this test for Cc1ccc2c(c1)-c1c(cnn1CC(=O)Nc1ccccc1C#N)CO2 ? F

Field: outcome | Entry: COCc1cc(C)nc(SCC(=O)Nc2cccc(C)c2)c1C#N F

What did this assay record as the result for Cc1ccc(-n2cc3ccc([N+](=O)[O-])cc3n2)cc1 ? T

Returns: the outcome recorded for COc1cc(OC)c(C(=O)Nc2ccc(N(C)C)cc2)cc1OC in this assay. F

###

- procedure-summary: qHTS Assay for Enhancers of SMN2 Splice Variant Expression; also: nearly all actives have a fitted effect of over 55% in size
- assay-conditions: HEK293 SMN2-luciferase splicing reporter, luminescence, 30-36 h; series mostly up to 46.1 µM
In all, about 210,000 compounds went through this assay and about 5,900 (2.8%) were called active. Not shown: some 5% with an inconclusive outcome. Calls follow the shape of the dose curve; as a rule, active = well fitted activation curve with a large enough effect; inconclusive = small, poorly fitted or top-dose-only effect; inactive = no such curve, though single readings can be large or run the other way. The sample as a whole holds a higher share of actives than the screen did.
Respond with a class label; see active, inactive

// below: answered compounds
Cc1ccn(-c2cccc(-n3ccc(C)n3)n2)n1 active
O=C(CSc1ccccc1)Nc1ccc(NC(=O)c2ccco2)cc1 inactive
O=C(CCS(=O)(=O)c1cc(Br)cc2c1N(C(=O)C1CC1)CC2)Nc1ccc(C(F)(F)F)cc1 inactive
O=C(Nc1ccc2c(c1)OCO2)c1ccc(N2C(=O)c3ccccc3C2=O)cc1 inactive
Cc1ccc2nc(CNC(=O)c3ccccc3)[nH]c2c1 active

Outcome logged for CCSc1ccccc1C(=O)Nc1ccc2c(c1)OCO2 in this assay: inactive

Outcome logged for COc1cc(Cl)c(C)cc1NC(=O)CCc1nc2cccnc2n1Cc1cccs1 in this assay: inactive

Per the records of this test, what outcome belongs to CCNS(=O)(=O)c1cc(-c2nnc(Nc3cccc(C(F)(F)F)c3)c3ccccc23)ccc1C ? inactive

Any idea what this test logged for O=C(Nc1ccc2c(c1)OCCO2)c1ccc(Cl)c(S(=O)(=O)N2CCCCC2)c1 ? inactive

Returns: the outcome recorded for CN1CCN(c2ccc(NC(=O)c3ccc4c(c3)OCCO4)cc2Cl)CC1 in this assay. active

###

- procedure-summary: qHTS Assay for Enhancers of SMN2 Splice Variant Expression; also: nearly all actives have a fitted effect of over 55% in size; also: potency is read from the fitted curve at half-maximal effect
- assay-conditions: HEK293 SMN2-luciferase splicing reporter, luminescence, 30-36 h; series mostly up to 46.1 µM
The whole screen tested about 210,000 compounds, of which about 5,900 (2.8%) were called active. Not shown: some 5% with an inconclusive outcome. The sample holds actives, similar compounds and a random draw of the others, so the mix is not that of the screen.
reported-metric: Potency

molecule	Potency
Cc1ccc(-c2cc(-c3coc4ccccc4c3=O)c3c(n2)-c2cc(Cl)ccc2OC3)cc1	inactive
C(=N\n1cnnc1)/c1cccnc1	inactive
COc1ccc(-n2c(SCC(N)=O)nc3c(oc4ccccc43)c2=O)cc1	inactive
COc1ccccc1-c1cc(C(F)(F)F)nc(S(=O)(=O)CCCC(=O)Nc2ccc(F)cc2F)n1	inactive
CN(C)c1ccnc2sc3c(=O)n(Cc4ccccc4)cnc3c12	inactive
COc1ccccc1NC(=O)CSc1oc(-c2ccco2)nc1S(=O)(=O)c1ccc(Br)cc1	inactive
Nc1nc(NCCCN2CCOCC2)nc(Nc2ccccc2)c1[N+](=O)[O-]	inactive
Cc1ccc(NC(=O)CN2c3ccccc3S(=O)(=O)c3ccccc32)cc1F	inactive
CC(C)=CCN1CCC2(CCc3ccccc32)CC1	inactive
CCN(C(=O)c1sc2cc(OC)ccc2c1Cl)c1ccccc1	inactive

I'd like to know its Potency. The molecule in question is Cc1ccc(SCCC(=O)Nc2cc(C)on2)cc1 inactive

So what does the record say about Potency for c1c2c(cc3sc(N4CCCCC4)nc13)OCCO2 ? 0.501 µM (active)

For the molecule Cc1cc(NC(=O)CCC2COc3ccccc3O2)no1 (configuration not stated) , what Potency is on record? 12.6 µM (active)

Would you mind telling me what Potency value was observed for Cc1c(C(=O)NCc2ccccc2Br)oc2ccc3c(c12)C(=O)CC(C)(C)O3 ? inactive

Look at this molecule and give its reported Potency. COc1ccc(-c2csc(-c3c(N)c(C(=O)c4ccc(OC)c(OC)c4)n4ccccc34)n2)cc1 inactive

Give its Potency value. Item: COc1ccc2nc(Nc3nc4ccc(NC(C)=O)cc4s3)sc2c1 inactive

Value lookup for Potency; key = CN(C)c1ccnc2sc(C(=O)c3ccccc3)c(N)c12 14.1 µM (active)

I'd like to know its Potency. The molecule in question is NS(=O)(=O)c1ccc(NC(=O)C(=O)Nc2ccc3nc4n(c(=O)c3c2)CCCCC4)cc1 inactive

GET /values?readout=Potency&item= CC1CCCCN1Cc1c(O)ccc2c(=O)c(-c3cccc(Cl)c3)c(C(F)(F)F)oc12 (configuration not stated) inactive

Looking for the measured Potency of Cc1oc(C)c2c(=O)cc(-c3ccc4c(c3)OCO4)cc(OC(=O)c3ccc(Cl)cc3)c12 , can you help? inactive

Query: Potency; subject: CCC(C(=O)Nc1cccc(Cl)c1C)n1nc(-c2ccc(C)cc2)ccc1=O (configuration not stated) inactive

// returns reported Potency for input CN(C)CCN=c1cc(-c2ccccc2)oc2ccc(Cl)cc12 15.8 µM (active)

Hey, just so you know, these numbers are from PubChem BioAssay AID1458.
